Target: GIPR (CHO-K1-hGIPR cells) (Homo sapiens)
Construct: host or cells: CHO-K1
Sequence (P48546 22-466): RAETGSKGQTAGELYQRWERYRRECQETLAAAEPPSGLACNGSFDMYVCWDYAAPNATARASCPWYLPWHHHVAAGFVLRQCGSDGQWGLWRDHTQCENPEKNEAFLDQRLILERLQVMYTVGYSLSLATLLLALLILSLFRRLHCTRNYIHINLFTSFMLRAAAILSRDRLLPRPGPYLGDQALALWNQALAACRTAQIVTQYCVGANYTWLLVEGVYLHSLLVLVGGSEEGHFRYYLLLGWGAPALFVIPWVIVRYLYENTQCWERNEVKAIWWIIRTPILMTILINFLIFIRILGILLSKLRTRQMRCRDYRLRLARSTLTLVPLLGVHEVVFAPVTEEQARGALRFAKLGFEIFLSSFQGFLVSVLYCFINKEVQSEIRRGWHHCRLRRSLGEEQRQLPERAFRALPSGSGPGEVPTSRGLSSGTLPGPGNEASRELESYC
Assay: FACS binding assay
Details: competition with 20 nM GIP-057, 4° C. for 1 hour, read-out: pIC50 Category (converted)
*1 amine or outer side, *2 acyl side, *3 side chain or, on linkers, in order; H or OH if unused. Where a SMILES comes first, the peptide text is derived from it. Bridges are numbered along the chain shown (N, C = ends). [ ]: non-standard residue; d: D form. The star is where a group is joined. ξ: configuration not given here. X5 = NC(=O)[C@H](CCCCNC(=O)CN1CCN(CC(=O)O)CCN(CC(=O)O)CCN(CC(=O)O)CC1)NC(=O)CCC(=O)NCCCOCCOCCOCCCN*; X25 = NC(=O)C(CCCCNC(=O)CN1CCN(CC(=O)O)CCN(CC(=O)O)CCN(CC(=O)O)CC1)NC(=O)CCC(=O)NCCCOCCOCCOCCCN*; X3 = O=C(O)CN1CCN(CC(=O)O)CCN(CC(=O)NCCCOCCOCCOCCCN*)CCN(CC(=O)O)CC1; Trp(5-Cl) = N[C@@H](Cc1c[nH]c2ccc(Cl)cc12)C(=O)O; Phe(3,5-Cl2) = N[C@@H](Cc1cc(Cl)cc(Cl)c1)C(=O)O; Pyridine(2,6-diCH2) = c1cc(C[*:1])nc(C[*:2])c1; X22 = O=C([C@H](Cc1cccc(Cl)c1Cl)N[*:1])[*:2]; 1Nal = N[C@@H](Cc1cccc2ccccc12)C(=O)O; 2Nal = N[C@@H](Cc1ccc2ccccc2c1)C(=O)O; mXylylene = c1cc(C[*:1])cc(C[*:2])c1; X4 = O=C(NCCN[*:2])c1cccc(C[*:1])c1; Hyp = O=C(O)[C@@H]1C[C@@H](O)CN1; Suc = O=C(CCC(=O)[*:2])[*:1]; Thp = NC1(C(=O)O)CCOCC1; Aib = CC(C)(N)C(=O)O; ξP = O=C(O)C1CCCN1
Property: IC50

[in] GET IC50 | system: GIPR (CHO-K1-hGIPR cells) (Homo sapiens) | item: CC[C@H](C)[C@@H]1NC(=O)[C@H](CC(C)C)NC(=O)C2(CCOCC2)NC(=O)[C@@H](NC(=O)[C@@H](CC(C)C)NC(=O)[C@H](CCC(=O)O)NC(=O)[C@@H]2C[C@@H](O)CN2C(=O)[C@H](Cc2cccc(Cl)c2Cl)NC(=O)[C@H](Cc2c[nH]c3ccccc23)NC(=O)[C@H](CC(=O)O)NC(C)=O)CSCc2cccc(n2)CSC[C@@H](C(N)=O)NC1=O [GIP-265] (Ac-DW[X22][Hyp]E[dL]C[Thp]LIC-NH2; linker 7-11 via Pyridine(2,6-diCH2))
[out] 10 to 79.4 nM

[in] GET IC50 | system: GIPR (CHO-K1-hGIPR cells) (Homo sapiens) | item: CC[C@H](C)[C@@H]1NC(=O)[C@H](CC(C)C)NC(=O)C(C)(C)NC(=O)[C@@H](NC(=O)[C@H](CC(C)C)NC(=O)[C@@H](CCC(=O)O)NC(=O)C2CCCN2C(=O)[C@H](Cc2c[nH]c3ccccc23)NC(=O)[C@H](Cc2c[nH]c3ccccc23)NC(=O)[C@H](CC(=O)O)NC(=O)CCC(=O)NCCCOCCOCCOCCCNC(=O)CN2CCN(CC(=O)O)CCN(CC(=O)O)CCN(CC(=O)O)CC2)CSCc2cccc(c2)CSC[C@@H](C(N)=O)NC1=O (stereo partly drawn) [GIP-270] ({X3-Suc}-DWW[ξP][dE]LC[Aib]LIC-NH2; linker 7-11 via mXylylene)
[out] 100 to 794 nM

[in] GET IC50 | system: GIPR (CHO-K1-hGIPR cells) (Homo sapiens) | item: CC[C@H](C)[C@@H]1NC(=O)[C@H](CC(C)C)NC(=O)C2(CCOCC2)NC(=O)[C@@H](NC(=O)[C@@H](CC(C)C)NC(=O)[C@H](CCC(=O)O)NC(=O)[C@@H]2C[C@@H](O)CN2C(=O)[C@H](Cc2cc(Cl)cc(Cl)c2)NC(=O)[C@H](Cc2c[nH]c3ccccc23)NC(=O)[C@H](CC(=O)O)NC(C)=O)CSCc2cccc(n2)CSC[C@@H](C(N)=O)NC1=O [GIP-264] (Ac-DW[Phe(3,5-Cl2)][Hyp]E[dL]C[Thp]LIC-NH2; linker 7-11 via Pyridine(2,6-diCH2))
[out] 10 to 79.4 nM

[in] GET IC50 | system: GIPR (CHO-K1-hGIPR cells) (Homo sapiens) | item: CC[C@H](C)[C@@H]1NC(=O)[C@H](CC(C)C)NC(=O)C(C)(C)NC(=O)[C@@H](NC(=O)[C@H](CC(C)C)NC(=O)[C@H](CCC(=O)O)NC(=O)[C@@H]2CCCN2C(=O)[C@H](Cc2c[nH]c3ccccc23)NC(=O)[C@H](Cc2cccc3ccccc23)NC(=O)[C@H](CC(=O)O)NC(C)=O)CSCc2cccc(c2)CSC[C@@H](C(=O)NCCCOCCOCCOCCCNC(=O)CCC(=O)N[C@@H](CCCCNC(=O)CN2CCN(CC(=O)O)CCN(CC(=O)O)CCN(CC(=O)O)CC2)C(N)=O)NC1=O [GIP-293] (Ac-D[1Nal]WPELC[Aib]LIC-X5; linker 7-11 via mXylylene)
[out] > 1000 nM

---
[in] GET IC50 | system: GIPR (CHO-K1-hGIPR cells) (Homo sapiens) | item: CC(=O)N[C@@H](CC(=O)O)C(=O)N[C@@H](Cc1c[nH]c2ccccc12)C(=O)N[C@@H](Cc1c[nH]c2ccc(Cl)cc12)C(=O)N1C[C@H](O)C[C@H]1C(=O)N[C@@H](CCC(=O)O)C(=O)N[C@H](CC(C)C)C(=O)N[C@H]1CSCc2cccc(n2)CSC[C@@H](C(N)=O)NC(=O)[C@H](CCCNC(=N)N)NC(=O)[C@H](CC(C)C)NC(=O)C2(CCOCC2)NC1=O [GIP-353] (Ac-DW[Trp(5-Cl)][Hyp]E[dL]C[Thp]LRC-NH2; linker 7-11 via Pyridine(2,6-diCH2))
[out] > 1000 nM

[in] GET IC50 | system: GIPR (CHO-K1-hGIPR cells) (Homo sapiens) | item: CC[C@H](C)[C@@H]1NC(=O)[C@H](CC(C)C)NC(=O)C(C)(C)NC(=O)[C@@H](NC(=O)[C@@H](CC(C)C)NC(=O)[C@H](CCC(=O)O)NC(=O)[C@@H]2CCCN2C(=O)[C@H](Cc2c[nH]c3ccc(Cl)cc23)NC(=O)[C@H](Cc2c[nH]c3ccccc23)NC(=O)[C@H](CC(=O)O)NC(=O)CCC(=O)NCCCOCCOCCOCCCNC(=O)CN2CCN(CC(=O)O)CCN(CC(=O)O)CCN(CC(=O)O)CC2)CSCc2cccc(c2)C(=O)NCCNC1=O [GIP-359] ({X3-Suc}-DW[Trp(5-Cl)]PE[dL]C[Aib]LI; linker 7-C via X4)
[out] 10 to 79.4 nM

[in] GET IC50 | system: GIPR (CHO-K1-hGIPR cells) (Homo sapiens) | item: CC[C@H](C)[C@@H]1NC(=O)[C@H](CC(C)C)NC(=O)C(C)(C)NC(=O)[C@@H](NC(=O)[C@H](CC(C)C)NC(=O)[C@H](CCC(=O)O)NC(=O)[C@@H]2CCCN2C(=O)[C@H](Cc2ccc3ccccc3c2)NC(=O)[C@H](Cc2c[nH]c3ccccc23)NC(=O)[C@H](CC(=O)O)NC(C)=O)CSCc2cccc(c2)CSC[C@@H](C(=O)NCCCOCCOCCOCCCNC(=O)CCC(=O)NC(CCCCNC(=O)CN2CCN(CC(=O)O)CCN(CC(=O)O)CCN(CC(=O)O)CC2)C(N)=O)NC1=O (stereo partly drawn) [GIP-294] (Ac-DW[2Nal]PELC[Aib]LIC-X25; linker 7-11 via mXylylene)
[out] > 1000 nM

[in] GET IC50 | system: GIPR (CHO-K1-hGIPR cells) (Homo sapiens) | item: CC[C@H](C)[C@@H]1NC(=O)[C@H](CC(C)C)NC(=O)[C@H](C)NC(=O)[C@@H](NC(=O)[C@H](CC(C)C)NC(=O)[C@H](CCC(=O)O)NC(=O)[C@@H]2CCCN2C(C)=O)CSCc2cccc(c2)CSC[C@@H](C(N)=O)NC1=O [GIP-326] (Ac-PELCALIC-NH2; linker 4-8 via mXylylene)
[out] > 1000 nM

[in] GET IC50 | system: GIPR (CHO-K1-hGIPR cells) (Homo sapiens) | item: CC[C@H](C)[C@@H]1NC(=O)[C@H](CC(C)C)NC(=O)C(C)(C)NC(=O)[C@@H](NC(=O)[C@@H](CC(C)C)NC(=O)[C@H](CCC(=O)O)NC(=O)[C@@H]2CCCN2C(=O)[C@H](Cc2c[nH]c3ccccc23)NC(=O)[C@H](Cc2c[nH]c3ccccc23)NC(=O)CCC(=O)O)CSCc2cccc(c2)CSC[C@@H](C(N)=O)NC1=O [GIP-258] (Suc-WWPE[dL]C[Aib]LIC-NH2; linker 6-10 via mXylylene)
[out] 10 to 79.4 nM

Origin of the recorded values: patent US20250296971A1
